# target of assay: AMPA receptors
# test details: AMPA receptor binding affinity (Honore et al. method)
# measurement context: Table 1, AMPA
# maps each entry to its pIC50
Lab note: report pIC50 as minus log10 of the concentration in molar units, number only.

Consider the worked cases shown below.
Cc1c([N+](=O)[O-])cc2[nH]c(=O)c(=O)[nH]c2c1CN(C)C(=O)Nc1ccccc1C(F)(F)F    5.55
Cc1c([N+](=O)[O-])cc2[nH]c(=O)c(=O)[nH]c2c1CN(C)C(=O)Nc1ccccc1    6.89
COc1ccc(NC(=S)N(C)Cc2c(C)c([N+](=O)[O-])cc3[nH]c(=O)c(=O)[nH]c23)cc1    6.64
Cc1ccc(NC(=O)N(C)Cc2c(C)c([N+](=O)[O-])cc3[nH]c(=O)c(=O)[nH]c23)c(C)c1    5.44
COc1ccc(OC)c(NC(=O)N(C)Cc2c(C)c([N+](=O)[O-])cc3[nH]c(=O)c(=O)[nH]c23)c1    5.52

Query: Requested read-out: pIC50. Entry: CCOC(=O)c1ccc(NC(=O)N(C)Cc2c(C)c([N+](=O)[O-])cc3[nH]c(=O)c(=O)[nH]c23)cc1
Result: 5.39

Query: Requested read-out: pIC50. Entry: COc1ccc(NC(=O)N(C)Cc2c(C)c([N+](=O)[O-])cc3[nH]c(=O)c(=O)[nH]c23)cc1
Result: 6.77

---

# maps each entry to its pIC50
# target of assay: glycine site of the NMDA receptor (Rattus norvegicus)
# test details: Glycine site of the NMDA receptor binding affinity (Jones et al. method)
# measurement context: Table 1, GLY (glycine site of NMDA receptor)
Lab note: report pIC50 as minus log10 of the concentration in molar units, number only.

Cc1c([N+](=O)[O-])cc2[nH]c(=O)c(=O)[nH]c2c1CN(C)C(=O)Nc1ccccc1    8.10
COc1ccc(NC(=S)N(C)Cc2c(C)c([N+](=O)[O-])cc3[nH]c(=O)c(=O)[nH]c23)cc1    7.40
COc1ccc(OC)c(NC(=O)N(C)Cc2c(C)c([N+](=O)[O-])cc3[nH]c(=O)c(=O)[nH]c23)c1    8.00
Cc1ccc(NC(=O)N(C)Cc2c(C)c([N+](=O)[O-])cc3[nH]c(=O)c(=O)[nH]c23)c(C)c1    7.70
Cc1c([N+](=O)[O-])cc2[nH]c(=O)c(=O)[nH]c2c1CN(C)C(=O)Nc1ccccc1C(F)(F)F    8.00

Query: Requested read-out: pIC50. Entry: CCOC(=O)c1ccc(NC(=O)N(C)Cc2c(C)c([N+](=O)[O-])cc3[nH]c(=O)c(=O)[nH]c23)cc1
Result: 8.00

Query: Requested read-out: pIC50. Entry: COc1ccc(NC(=O)N(C)Cc2c(C)c([N+](=O)[O-])cc3[nH]c(=O)c(=O)[nH]c23)cc1
Result: 8.30

Data provenance: patent US6172065A
